Data credit: ChEMBL document CHEMBL1926574

Readout name: Ki
Express your answer as a number followed by its unit.

What Ki appears in the records for this molecule with Adenosine receptor A3 (Homo sapiens, UniProt P0DMS8)? `CC(C)(C)OC(=O)NCCNc1nc(NCCNC(=O)OC(C)(C)C)n2nc(-c3ccco3)nc2n1`
Sequence (P0DMS8 whole entry): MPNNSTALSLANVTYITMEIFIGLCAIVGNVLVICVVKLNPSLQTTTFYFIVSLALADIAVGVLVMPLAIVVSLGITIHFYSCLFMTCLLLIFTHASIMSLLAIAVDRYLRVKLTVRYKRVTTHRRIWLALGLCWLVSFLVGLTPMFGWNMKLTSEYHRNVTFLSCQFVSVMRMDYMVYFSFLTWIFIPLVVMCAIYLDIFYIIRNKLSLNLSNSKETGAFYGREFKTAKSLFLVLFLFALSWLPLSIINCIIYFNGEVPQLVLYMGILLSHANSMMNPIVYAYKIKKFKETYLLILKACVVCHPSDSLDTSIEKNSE
8.49 µM

Value wanted: Ki (Adenosine receptor A3 (Homo sapiens, UniProt P0DMS8)) of entry `CC(C)(C)OC(=O)NCCNc1nc(N)n2nc(-c3ccco3)nc2n1`
1.49 µM

Value wanted: Ki (Adenosine receptor A3 (Homo sapiens, UniProt P0DMS8)) of entry `Nc1nc(N2CCN(C(=O)Cc3ccc(Cl)cc3)CC2)nc2nc(-c3ccco3)nn12`
1.26 µM
